target: Human immunodeficiency virus type 1 protease (Human immunodeficiency virus 1)
pKi: −log10 of the molar value.
Param threshold (7) applies to pKi; output true when value >= threshold, false when value < threshold.

Some entries whose results are on file:
CC(C)(C)NC(=O)c1ccccc1C[C@@H](O)[C@H](CSc1ccc2ccccc2c1)NC(=O)c1cccc(N)c1Cl :: true
CC(C)(C)NC(=O)c1ccccc1C[C@@H](O)[C@H](CSc1ccc2ccccc2c1)NC(=O)c1cccc(N)c1Br :: true
CC(C)(C)NC(=O)c1ccccc1C[C@@H](O)[C@H](CSc1ccc2ccccc2c1)NC(=O)c1cccc2c1CCCN2 :: true

Enquiry: Would you say Cc1c(O)cccc1C(=O)N[C@@H](CSc1ccc2ccccc2c1)[C@H](O)Cc1ccccc1C(=O)NC(C)(C)C shows pKi at minimum 7?
Return: true

Enquiry: Hi team, for Cc1c(N)cc(N)cc1C(=O)N[C@@H](CSc1ccc2ccccc2c1)[C@H](O)Cc1ccccc1C(=O)NC(C)(C)C , is the recorded pKi at or above 7?
Return: true

Enquiry: Evaluate CC(C)(C)NC(=O)c1ccccc1C[C@@H](O)[C@H](CSc1ccc2ccccc2c1)NC(=O)c1cccc2c1CCNC2 : pKi at minimum 7?
Return: false
